Form field: Percentage of Positive Cells (%) (one value per entry).
target: HLA-A2 on T2 cells without added peptide (human); experiment: flow cytometry, T2 cells without peptide, antibody 10 µg/mL
Just the number please, in %, no unit attached.

1G7-IgG1-SI (antibody, V domains shown) VH: QVQLVESGGGVVRPGGSLRLSCTASGFTFDDYGMTWVRQAPGKGLEWVSGINWNGGSTGYADSVKGRFTISRDNAKNSLFLQMNSLRAEDTALYYCARDQGIAVVGTHYYYYYGMDVWGQGTAVTVSS VL: EIVLTQSPATLSLSPGERATLSCRASQSFSSYLAWYQQKPGQAPRLLIFDTSNRATGIPARFSGSGSGTDFTLTISSLEPEDFAVYYCQQRSNWPLTFGGGTKVEIK	5.32

Note: attention shifts to another entry.
QUERY: Using the record for 7B9-IgG1-SI (antibody, V domains shown) VH: EVQLVESGGGVVQPGGSLRLSCAASGFTFDDYAMHWVRQAPGKGLEWVSLISGDDGSTYYADSMKGRITISRDNSKNSLYLQMNSLRTEDTAMYYCAKASYGSGSYLYNYGMDVWGQGTTVTVFS VL: DIQLTQSPSSLSASVGDRVTITCQASQDIINYLNWYQQKPGKAPKLLIYDTSNLETGVPSRFSGSGSGTDFAFTINSLQPEDIATYYCQQFVNLPLTFGGGTKVEIK , report its Percentage of Positive Cells (%).
RESULT: 4.66
